Target: human EP4 receptors (Homo sapiens)
Sequence (P35408 whole entry): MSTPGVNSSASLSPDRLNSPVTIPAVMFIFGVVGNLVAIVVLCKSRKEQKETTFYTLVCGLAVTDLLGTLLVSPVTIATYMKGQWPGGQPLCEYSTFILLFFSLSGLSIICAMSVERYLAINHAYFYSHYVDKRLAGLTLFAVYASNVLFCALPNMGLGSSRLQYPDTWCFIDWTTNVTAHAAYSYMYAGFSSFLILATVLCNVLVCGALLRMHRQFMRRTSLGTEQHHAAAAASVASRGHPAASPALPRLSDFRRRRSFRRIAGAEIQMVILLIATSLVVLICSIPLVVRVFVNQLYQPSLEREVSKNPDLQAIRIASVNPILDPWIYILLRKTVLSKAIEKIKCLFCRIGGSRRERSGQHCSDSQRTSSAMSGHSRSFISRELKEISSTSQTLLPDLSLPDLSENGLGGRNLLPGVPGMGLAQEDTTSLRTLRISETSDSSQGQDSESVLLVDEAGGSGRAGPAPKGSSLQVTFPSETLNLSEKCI
Assay: cAMP assay in human EP4 transfectant
Settings: HEK293 cells expressing human EP4 receptors; 1 nM PGE2, 0.2 mM IBMX, 37° C. for 10 min
test-readout: IC50
Remember to put the unit after the number in your answer.

Lookup: Entry under review: C[C@H](NC(=O)c1cc(Cl)ccc1OCc1ccccc1C#N)c1ccc(C(=O)O)cc1 . Reported IC50?
Found: 39 nM

Lookup: Entry under review: C[C@H](NC(=O)c1cc(Cl)ccc1OCCc1c(F)cccc1F)c1ccc(C(=O)O)cc1 . Reported IC50?
Found: 98 nM

Lookup: Entry under review: C[C@H](NC(=O)c1cc(Cl)ccc1OCCOc1ccccc1)c1ccc(C(=O)O)cc1 . Reported IC50?
Found: 62 nM

Lookup: Entry under review: C[C@H](NC(=O)c1cc(Cl)ccc1OCc1cc(F)cc(F)c1)c1ccc(C(=O)O)cc1 . Reported IC50?
Found: 78 nM

Lookup: Entry under review: C[C@H](NC(=O)c1cc(Cl)ccc1OCc1ccc(F)cc1)c1ccc(C(=O)O)cc1 . Reported IC50?
Found: 46 nM

Lookup: Entry under review: C[C@H](NC(=O)c1cc(Cl)cnc1N(C)CCc1ccccc1)c1ccc(C(=O)O)cc1 . Reported IC50?
Found: 350 nM

Lookup: Entry under review: C[C@H](NC(=O)c1cc(Cl)cnc1N(C)Cc1ccccc1F)c1ccc(C(=O)O)cc1 . Reported IC50?
Found: 120 nM

Lookup: Entry under review: C[C@H](NC(=O)c1cc(Cl)ccc1OCc1cc(F)ccc1F)c1ccc(C(=O)O)cc1 . Reported IC50?
Found: 50 nM

Lookup: Entry under review: C[C@H](NC(=O)c1cc(Cl)ccc1OCc1ccccc1F)c1ccc(C(=O)O)cc1 . Reported IC50?
Found: 170 nM

Lookup: Entry under review: C[C@H](NC(=O)c1cc(Cl)cnc1N(C)Cc1ccc(Cl)cc1)c1ccc(C(=O)O)cc1 . Reported IC50?
Found: 25 nM

Lookup: Entry under review: Cc1ccccc1CCOc1ccc(Cl)cc1C(=O)NCc1ccc(C(=O)O)cc1 . Reported IC50?
Found: 62 nM

Lookup: Entry under review: O=C(O)c1ccc(CNC(=O)c2cc(Cl)ccc2OCc2ccc(Cl)cc2)cc1 . Reported IC50?
Found: 441 nM

Lookup: Entry under review: C[C@H](NC(=O)c1cc(Cl)ccc1OCc1cccc(F)c1)c1ccc(C(=O)O)cc1 . Reported IC50?
Found: 140 nM

Lookup: Entry under review: Cc1ccc(CCOc2ccc(Cl)cc2C(=O)N[C@@H](C)c2ccc(C(=O)O)cc2)cc1 . Reported IC50?
Found: 21 nM

Lookup: Entry under review: C[C@H](NC(=O)c1cc(Cl)ccc1OCCc1ccccc1F)c1ccc(C(=O)O)cc1 . Reported IC50?
Found: 48 nM

Lookup: Entry under review: C[C@H](NC(=O)c1cc(Cl)ccc1OCC1CCC1)c1ccc(C(=O)O)cc1 . Reported IC50?
Found: 30 nM

Lookup: Entry under review: CC(C)CCOc1ccc(Cl)cc1C(=O)N[C@@H](C)c1ccc(C(=O)O)cc1 . Reported IC50?
Found: 41 nM

Lookup: Entry under review: C[C@H](NC(=O)c1cc(Cl)ccc1OCc1ccc(Cl)cc1F)c1ccc(C(=O)O)cc1 . Reported IC50?
Found: 65 nM

Lookup: Entry under review: C[C@H](NC(=O)c1cc(Cl)cnc1N(C)Cc1ccccc1Cl)c1ccc(C(=O)O)cc1 . Reported IC50?
Found: 100 nM

Lookup: Entry under review: C[C@H](NC(=O)c1cc(Cl)ccc1OCc1ccc(F)cc1Cl)c1ccc(C(=O)O)cc1 . Reported IC50?
Found: 55 nM

Ref: patent US20050250818A1
